Values were extracted from the Immune Epitope Database (IEDB).

measurement_target: HLA-B*44:03
experiment: IEDB peptide-MHC binding, purified MHC/competitive/fluorescence; bounds were set here for any values at or beyond the usual limits of such assays
conditions_used: source organism: Homo sapiens
readout_label: IC50

| query_sequence | readout_label | observed_result |
| --- | --- | --- |
| ILNRETLLDFV | IC50 | ≥ 20 µM |

====

measurement_target: HLA-B*58:01
experiment: IEDB peptide-MHC binding, purified MHC/direct/fluorescence; filed as Kd, often an IC50 or EC50 that approximates it; bounds were set here for any values at or beyond the usual limits of such assays
conditions_used: source organism: Marburg virus - Musoke, Kenya, 1980

| query_sequence | measurement_target | Kd |
| --- | --- | --- |
| KAVEKGKNW | HLA-B*58:01 | 91.5 nM |

====

measurement_target: HLA-A*24:02
experiment: IEDB peptide-MHC binding, purified MHC/competitive/fluorescence; bounds were set here for any values at or beyond the usual limits of such assays
conditions_used: source organism: Vaccinia virus
# IC50 per entry
readout_label: IC50 (µM)

| query_sequence | measurement_target | readout_label | bound_operator | observed_result |
| --- | --- | --- | --- | --- |
| VSYNDYFNV | HLA-A*24:02 | IC50 | ≥ | 77.1 |
| LRYLLFGIK | HLA-A*24:02 | IC50 | = | 13.6 |
| FGNLSPETL | HLA-A*24:02 | IC50 | = | 57.8 |
| SSKYYIKNI | HLA-A*24:02 | IC50 | ≥ | 1450 |

====

measurement_target: HLA-A*23:01
experiment: IEDB peptide-MHC binding, purified MHC/competitive/radioactivity; filed as Kd, often an IC50 or EC50 that approximates it; bounds were set here for any values at or beyond the usual limits of such assays
conditions_used: source organism: Mammarenavirus mopeiaense

| query_sequence | measurement_target | Kd |
| --- | --- | --- |
| LCLSGEGWPY | HLA-A*23:01 | ≥ 70 µM |

====

measurement_target: HLA-A*03:01
experiment: IEDB peptide-MHC binding, purified MHC/direct/fluorescence; filed as Kd, often an IC50 or EC50 that approximates it; bounds were set here for any values at or beyond the usual limits of such assays
conditions_used: source organism: Brucella abortus 2308

| query_sequence | measurement_target | Kd |
| --- | --- | --- |
| RQMLHEIGR | HLA-A*03:01 | 3.22 µM |

====

measurement_target: HLA-B*44:02
experiment: IEDB peptide-MHC binding, purified MHC/competitive/radioactivity; filed as Kd, often an IC50 or EC50 that approximates it; bounds were set here for any values at or beyond the usual limits of such assays
conditions_used: source organism: Mammarenavirus juninense
pKd: −log10 of the molar value.
readout_label: pKd

| query_sequence | observed_result |
| --- | --- |
| AETGSQGVYM | 6.52 |
| HDLPLLCNL | 5.83 |

====

# pKd per entry
measurement_target: HLA-B*40:01
experiment: IEDB peptide-MHC binding, purified MHC/competitive/radioactivity; filed as Kd, often an IC50 or EC50 that approximates it; bounds were set here for any values at or beyond the usual limits of such assays
conditions_used: source organism: Mammarenavirus machupoense
pKd: −log10 of the molar value.

| query_sequence | bound_operator | pKd |
| --- | --- | --- |
| EEPVSLLPLS | = | 5.13 |
| DELGNILSTY | ≤ | 4.16 |
| EELSLMYEAL | = | 4.81 |

====

measurement_target: HLA-A*11:01
experiment: IEDB peptide-MHC binding, purified MHC/competitive/radioactivity; filed as Kd, often an IC50 or EC50 that approximates it; bounds were set here for any values at or beyond the usual limits of such assays
conditions_used: source organism: Dengue virus 2 Jamaica/1409/1983

| query_sequence | measurement_target | scale_unit | Kd |
| --- | --- | --- | --- |
| VTNHMEGEHK | HLA-A*11:01 | nM | 508 |

====

measurement_target: HLA-B*18:01
experiment: IEDB peptide-MHC binding, purified MHC/direct/fluorescence; filed as Kd, often an IC50 or EC50 that approximates it; bounds were set here for any values at or beyond the usual limits of such assays
conditions_used: source organism: Cryptosporidium parvum Iowa II
# Kd per entry
readout_label: Kd (µM)

| query_sequence | measurement_target | readout_label | scale_unit | bound_operator | observed_result |
| --- | --- | --- | --- | --- | --- |
| SESLPIWGI | HLA-B*18:01 | Kd | µM | = | 13.7 |
| YLAKLFLDH | HLA-B*18:01 | Kd | µM | ≥ | 20 |

====

measurement_target: HLA-B*18:01
experiment: IEDB peptide-MHC binding, purified MHC/direct/fluorescence; filed as Kd, often an IC50 or EC50 that approximates it; bounds were set here for any values at or beyond the usual limits of such assays
conditions_used: source organism: Vibrio cholerae O1 biovar El Tor

| query_sequence | Kd |
| --- | --- |
| FATPAFFLI | ≥ 20 µM |

====

# Kd per entry
measurement_target: HLA-A*02:01
experiment: IEDB peptide-MHC binding, purified MHC/competitive/radioactivity; filed as Kd, often an IC50 or EC50 that approximates it; bounds were set here for any values at or beyond the usual limits of such assays
conditions_used: source organism: Trypanosoma cruzi
readout_label: Kd (nM)

| query_sequence | observed_result |
| --- | --- |
| SLSHDFTLV | 12.6 |
| LLGLWGFAAQ | 1100 |

====

measurement_target: HLA-B*15:01
experiment: IEDB peptide-MHC binding, purified MHC/competitive/radioactivity; filed as Kd, often an IC50 or EC50 that approximates it; bounds were set here for any values at or beyond the usual limits of such assays
conditions_used: source organism: Dengue virus 2 Jamaica/1409/1983
readout_label: Kd (nM)

| query_sequence | scale_unit | observed_result |
| --- | --- | --- |
| YQLAVTIMAI | nM | 15.8 |
| SMANIFRGSY | nM | 0.27 |

====

measurement_target: HLA-B*18:01
experiment: IEDB peptide-MHC binding, purified MHC/competitive/fluorescence; filed as Kd, often an IC50 or EC50 that approximates it; bounds were set here for any values at or beyond the usual limits of such assays
conditions_used: source organism: Cryptosporidium parvum Iowa II
readout_label: Kd

| query_sequence | observed_result |
| --- | --- |
| RIYKRSLKL | ≥ 20 µM |

====

measurement_target: HLA-A*03:01
experiment: IEDB peptide-MHC binding, purified MHC/direct/fluorescence; filed as Kd, often an IC50 or EC50 that approximates it; bounds were set here for any values at or beyond the usual limits of such assays
conditions_used: source organism: Ravn virus - Ravn, Kenya, 1987
readout_label: Kd

| query_sequence | observed_result |
| --- | --- |
| DLEKYNLAF | ≥ 20 µM |

====

measurement_target: HLA-A*68:23
experiment: IEDB peptide-MHC binding, purified MHC/competitive/fluorescence; filed as Kd, often an IC50 or EC50 that approximates it; bounds were set here for any values at or beyond the usual limits of such assays
conditions_used: source organism: Homo sapiens
pKd: −log10 of the molar value.
readout_label: pKd

| query_sequence | observed_result |
| --- | --- |
| KGPPAALTL | 6.02 |

====

measurement_target: HLA-A*02:01
experiment: IEDB peptide-MHC binding, purified MHC/competitive/fluorescence; bounds were set here for any values at or beyond the usual limits of such assays
conditions_used: source organism: Variola virus
pIC50: −log10 of the molar value.

| query_sequence | bound_operator | pIC50 |
| --- | --- | --- |
| TKIDSMFLM | = | 4.42 |
| PVILSLPRI | = | 5.73 |
| FIHIPGDTL | = | 5.59 |
| STHKLSLTK | ≤ | 3.59 |

====

measurement_target: HLA-B*18:01
experiment: IEDB peptide-MHC binding, purified MHC/competitive/radioactivity; filed as Kd, often an IC50 or EC50 that approximates it; bounds were set here for any values at or beyond the usual limits of such assays
conditions_used: source organism: Lymphocytic choriomeningitis virus (strain WE)

| query_sequence | Kd |
| --- | --- |
| REPTDQKQF | ≥ 77.5 µM |

====

measurement_target: HLA-B*18:01
experiment: IEDB peptide-MHC binding, purified MHC/competitive/fluorescence; filed as Kd, often an IC50 or EC50 that approximates it; bounds were set here for any values at or beyond the usual limits of such assays
conditions_used: source organism: Influenza A virus H3N2

| query_sequence | scale_unit | Kd |
| --- | --- | --- |
| MKWMMAMKY | nM | 984 |

====

measurement_target: HLA-B*46:01
experiment: IEDB peptide-MHC binding, purified MHC/competitive/fluorescence; filed as Kd, often an IC50 or EC50 that approximates it; bounds were set here for any values at or beyond the usual limits of such assays
conditions_used: source organism: Cryptosporidium parvum Iowa II
readout_label: Kd

| query_sequence | measurement_target | observed_result |
| --- | --- | --- |
| RIYKRSLKL | HLA-B*46:01 | ≥ 20 µM |
